# Tested on: Streptococcus pyogenes IID692
# ASSAY_NAME: MIC, agar dilution method on Mueller-Hinton agar with 5% defibrinated horse blood
# Format: cell-based
# MEASUREMENT_PARAMETERS: 5% horse blood, 5% CO2, 35C, 24 hours
RECORDED_ENDPOINT: MIC

1) CC(=O)NC[C@H]1CN(c2ccc(C3(C#N)CC3)c(F)c2)C(=O)O1 :: 0.5 µg/mL

Identify the reported MIC for the following entry. N#CC1(c2ccc(N3C[C@H](CNc4ccon4)OC3=O)cc2F)CC1
1 µg/mL

Item CC(=S)NC[C@H]1CN(c2ccc(C3(C#N)CC3)c(F)c2)C(=O)O1 : provide MIC
0.125 µg/mL

Using known records, supply MIC for COC(=S)NC[C@H]1CN(c2ccc(C3(C#N)CC3)c(F)c2)C(=O)O1
0.125 µg/mL

Please give measured MIC of the following entry: CC(=O)NC[C@H]1CN(c2ccc(N3CCOCC3)c(F)c2)C(=O)O1 [Linezolid, reference compound]
1 µg/mL

---

Reported MIC values for a set of molecules
# Tested on: Staphylococcus aureus CR (chloramphenicol resistant)
# ASSAY_NAME: MIC, agar dilution method on Mueller-Hinton agar
# Type: cell-based
# MEASUREMENT_PARAMETERS: 35C, 24 hours
Put your answer as a value accompanied by its unit after it.

1) CC(=O)NC[C@H]1CN(c2ccc(N3CCOCC3)c(F)c2)C(=O)O1 [Linezolid, reference compound] :: 16 µg/mL
2) CC(=S)NC[C@H]1CN(c2ccc(C3(C#N)CC3)c(F)c2)C(=O)O1 :: 0.5 µg/mL
3) CC(=O)NC[C@H]1CN(c2ccc(C3(C#N)CC3)c(F)c2)C(=O)O1 :: 4 µg/mL
4) COC(=S)NC[C@H]1CN(c2ccc(C3(C#N)CC3)c(F)c2)C(=O)O1 :: 2 µg/mL

Answer with reported MIC of N#CC1(c2ccc(N3C[C@H](CNc4ccon4)OC3=O)cc2F)CC1
16 µg/mL

---

# System: Enterococcus faecium VRQR (vancomycin resistant, quinolone resistant)
# ASSAY_NAME: MIC, agar dilution method on Mueller-Hinton agar with 5% defibrinated horse blood
# Type: cell-based
# MEASUREMENT_PARAMETERS: 5% horse blood, 5% CO2, 35C, 24 hours
# Procedure: The following in vitro results were obtained based on an agar dilution method except for C. pneumoniae. The activity is presented as the minimum inhibitory concentration (MIC) S. aureus and M. catarrhalis were tested on Mueller-Hinton agar, using an approximate inoculum of 1×10^4 cfu/spot an incubation temperature of 35C for 24 hours. The MIC was defined as the lowest concentration at which no visible bacterial growth was observed. […]
# MIC values compiled below
The response must be a number in µg/mL with no trailing unit.

Field: example entries. Status: answers known.
1) CC(=S)NC[C@H]1CN(c2ccc(C3(C#N)CC3)c(F)c2)C(=O)O1 [example 8] :: 0.25
2) CC(=O)NC[C@H]1CN(c2ccc(C3(C#N)CC3)c(F)c2)C(=O)O1 [example 7] :: 0.5
3) COC(=S)NC[C@H]1CN(c2ccc(C3(C#N)CC3)c(F)c2)C(=O)O1 [example 32] :: 0.25
4) CC(=O)NC[C@H]1CN(c2ccc(N3CCOCC3)c(F)c2)C(=O)O1 [Linezolid, reference compound] :: 2

Now take the following compound into account.
Tell me measured MIC for N#CC1(c2ccc(N3C[C@H](CNc4ccon4)OC3=O)cc2F)CC1 [example 18] please.
1
